Biological target: Human Factor D (Homo sapiens (Human), UniProt P00746)
Sequence (P00746 26-253): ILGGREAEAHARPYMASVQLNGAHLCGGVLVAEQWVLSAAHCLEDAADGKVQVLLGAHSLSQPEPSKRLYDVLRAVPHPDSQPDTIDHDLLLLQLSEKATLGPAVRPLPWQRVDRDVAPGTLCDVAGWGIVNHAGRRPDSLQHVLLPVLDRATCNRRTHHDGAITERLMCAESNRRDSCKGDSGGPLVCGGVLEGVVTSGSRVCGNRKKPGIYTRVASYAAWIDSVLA
Assay: Human Factor D assay
Type: biochemical
Details: Table 4; Factor D inhibition, substrate Z-L-Lys-SBzl
So I've got a bunch of compounds here, and I need their IC50 values.

// solved cases for IC50 follow
compound	IC50
CC(=O)c1nn(CC(=O)N2C[C@H](F)C[C@H]2C(=O)Nc2cccc(-c3ccccc3Cl)c2F)c2ccc(N3CCn4c(nnc4C(F)(F)F)C3)cc12	< 1 µM
CC(=O)c1nn(CC(=O)N2C[C@H](F)C[C@H]2C(=O)NC2CCN(C(=O)c3cc(Cl)c[nH]3)CC2)c2ccc(-c3cnc(C)nc3)cc12	< 1 µM
CC(=O)c1nn(CC(=O)N2C[C@H](F)C[C@H]2c2nnc(CCCC(F)(F)F)o2)c2ccc(-c3cnc(C)nc3)cc12	1 to 10 µM
C=CCCCCCCCCCNc1ncc(-c2ccc3c(c2)c(C(C)=O)nn3CC(=O)O)cn1	> 10 µM

Fill in IC50 for each of the 6 compounds listed.
1. COc1ccc(-c2ccc3c(c2)c(C(N)=O)cn3CC(=O)N2CCC(F)CC[C@H]2C(=O)Nc2cccc(C)n2)cn1 (stereo partly shown)
2. CC(=O)c1nn(CC(=O)N2C[C@H](F)C[C@H]2CS(=O)(=O)c2cccc(Br)n2)c2ccc(-c3cnc(C)nc3)cc12
3. CC[C@@H](NC(=O)Cn1nc(C(C)=O)c2cc(-c3cnc(C)nc3)ccc21)C(=O)Nc1cccc(Br)n1
4. Cc1cccc(NC(=O)[C@@H]2CCC(F)CCN2C(=O)Cn2cc(C(N)=O)c3cc(-c4ccc(F)nc4)ccc32)n1 (stereo partly shown)
5. CC(=O)c1nn(CC(=O)N2C[C@H](F)C[C@H]2CC(=O)NO)c2ccc(-c3cnc(C)nc3)cc12
6. CC(=O)c1nn(CC(=O)N2CCC[C@H](CNC(=O)c3cccc(Br)n3)C2)c2ccc(-c3cnc(C)nc3)cc12

### Response
> 10 µM
> 10 µM
> 10 µM
> 10 µM
> 10 µM
> 10 µM

Fill in IC50 for each of the 3 compounds listed.
1. CC(=O)c1nn(CC(=O)N2C[C@H](F)C[C@H]2CNCc2cccc(Cl)c2F)c2ccc(-c3cnc(C)nc3)cc12
2. Cc1ncc(-c2ccc3c(c2)c(C(=O)CP(=O)(O)O)nn3CC(=O)N2C[C@H](F)C[C@H]2C(=O)Nc2cccc(Br)n2)cn1
3. Cc1cccc(NC(=O)[C@@H]2CCC(F)CCN2C(=O)Cn2cc(C(N)=O)c3cc(-c4ccc5c(c4)CC5)ccc32)n1 (stereo partly shown)

### Response
1. 1 to 10 µM
2. > 10 µM
3. > 10 µM
